Recorded values, source patent US8163793B2.

MEASUREMENT_TARGET: UniProtKB P07711
MEASUREMENT_DESCRIPTION: Cathepsin enzyme inhibition assay (fluorogenic peptide substrate Z-Val-Val-Arg-AMC), Cathepsin L
Type: biochemical, human and mouse
MEASUREMENT_PARAMETERS: enzyme 1 nM, substrate 20 μM, pH 6.5; read-out: CatL IC50
OBSERVATION_TYPE: IC50 (µM)
Answer in µM, number only, no unit symbol.

Identify measured IC50 corresponding to N#CC1(NC(=O)[C@@H]2C[C@@H](S(=O)(=O)c3ccccc3Cl)CN2C(=O)C(F)(F)F)CC1 [Example 80]
9.77

Given the molecule N#CC1(NC(=O)[C@@H]2C[C@@H](S(=O)(=O)c3ccc(Cl)cc3Cl)CN2C(=O)CC(F)(F)F)CC1 [Example 227] , write its reported IC50.
15.6

# context switch: different molecule, same IC50
Annotate the molecule N#CC1(NC(=O)[C@@H]2C[C@@H](S(=O)(=O)c3ccc(Cl)cc3Cl)CN2C(=O)C2(C(F)(F)F)CCC2)CC1 [Example 169] with its measured IC50.
7.58
